# system: Inhibitor of nuclear factor kappa-B kinase subunit epsilon (Homo sapiens)
# Sequence (Q14164 whole entry): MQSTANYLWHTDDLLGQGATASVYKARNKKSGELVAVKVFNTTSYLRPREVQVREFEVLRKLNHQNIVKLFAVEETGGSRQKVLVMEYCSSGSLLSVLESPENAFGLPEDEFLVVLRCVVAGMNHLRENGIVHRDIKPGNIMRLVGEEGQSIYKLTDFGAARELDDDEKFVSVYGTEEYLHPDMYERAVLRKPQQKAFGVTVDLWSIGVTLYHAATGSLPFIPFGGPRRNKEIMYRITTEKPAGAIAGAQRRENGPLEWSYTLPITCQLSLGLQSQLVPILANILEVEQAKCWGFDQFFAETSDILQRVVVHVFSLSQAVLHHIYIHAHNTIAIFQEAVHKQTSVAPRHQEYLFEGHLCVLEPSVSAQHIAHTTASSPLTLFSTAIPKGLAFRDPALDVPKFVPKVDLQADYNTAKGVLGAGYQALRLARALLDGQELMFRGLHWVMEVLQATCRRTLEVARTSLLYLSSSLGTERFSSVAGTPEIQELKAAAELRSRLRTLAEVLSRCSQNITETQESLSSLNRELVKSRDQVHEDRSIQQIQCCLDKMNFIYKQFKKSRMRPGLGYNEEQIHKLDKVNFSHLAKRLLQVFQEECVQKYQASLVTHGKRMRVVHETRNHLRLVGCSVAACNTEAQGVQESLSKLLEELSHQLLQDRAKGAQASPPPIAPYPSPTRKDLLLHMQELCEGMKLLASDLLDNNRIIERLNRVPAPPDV
The entries below are paired with their reported pIC50.
Interpret pIC50 as the negative base-10 log of the concentration measured in mol/L.

Examples with their reported pIC50 follow.
• COc1cc(F)ccc1-c1nc2c(NCCCNC(=O)C3CCC3)c(Br)cnc2[nH]1 = 6.69
• COc1ccc(-c2nc3ncc(Br)c(NCCCNC(=O)C4CCC4)c3[nH]2)cc1 = 7.68
• COc1ccc(-c2nc3c(NCCCNC(C)=O)c(Br)cnc3[nH]2)cc1 = 6.27
• COc1ccc(-c2nc3ncc(Br)c(NCCCNC(=O)c4cccs4)c3[nH]2)cc1 = 6.27

Param item: COc1ccc(-c2nc3c(NCCCNC(=O)c4ccccc4)c(Br)cnc3[nH]2)cc1 ; param system: Inhibitor of nuclear factor kappa-B kinase subunit epsilon (Homo sapiens); output pIC50: 4.83
